Target: Estrogen receptor (Rattus norvegicus) (UniProt P06211+Q62986)
Assay: Binding affinity for rat uterine estrogen receptor relative to estradiol
Type: protein assay
Give measured RBA for each item. Keep answers brief.

Known RBA results, listed for orientation:
                                   compound  property_label    result
0  CCCCN(C)C(=O)CCCCCCCCCC[C@H]1C[C@H](O)[C@@]2(C)CC[C@@H]3c4ccc(O)cc4CC[C@H]3[C@H]12             RBA     0.05%
1  CCCCN(C)C(=O)CCCCCCCCCCCC[C@@H]1C[C@H](O)[C@@]2(C)CC[C@@H]3c4ccc(O)cc4CC[C@H]3[C@H]12             RBA  < 0.001%
2  CCCCN(C)C(=O)CCCCCCCCCC[C@]1(O)CC[C@H]2[C@@H]3CCc4cc(O)ccc4[C@H]3CC[C@@]21C             RBA     0.01%
3  CCCCN(C)C(=O)CCCCCCCCCC[C@@H]1Cc2cc(O)ccc2[C@H]2CC[C@]3(C)[C@@H](O)CC[C@H]3[C@H]12             RBA      1.2%
4  CCCCN(C)C(=O)CCCCCCCCC1C[C@H](O)[C@@]2(C)CC[C@@H]3c4ccc(O)cc4CC[C@H]3[C@H]12 (stereo partly drawn)             RBA  < 0.001%

Look at each compound and report its RBA.
1. CCCCN(C)C(=O)CCCCCCCCCCCC[C@H]1C[C@H](O)[C@@]2(C)CC[C@@H]3c4ccc(O)cc4CC[C@H]3[C@H]12
2. CCCCN(C)C(=O)CCCCCCCCCC[C@@H]1C[C@H](O)[C@@]2(C)CC[C@@H]3c4ccc(O)cc4CC[C@H]3[C@H]12
3. CCCCN(C)C(=O)CCCCCCCCCCC1C[C@H](O)[C@@]2(C)CC[C@@H]3c4ccc(O)cc4CC[C@H]3[C@H]12 (stereo partly drawn)

1. < 0.001%
2. < 0.001%
3. 0.001%

Value source: ChEMBL document CHEMBL1129085
